- Test system: Cryptococcus neoformans
- test_name: Antifungal activity against Cryptococcus neoformans by broth dilution technique
- Assay type: functional
Activity calls are given as the source filed them. The rule behind the calls is not given here.
measurement_kind: MIC

Some compounds with recorded MIC:
• COc1ccccc1-n1cc(C=O)c(-c2c(O)ccc3c(C)cc(=O)oc23)n1 = 25 µg/mL
• C[C@@H]1[C@H](O)[C@@H](C)/C=C/C=C/C=C/C=C/C=C/C=C/C=C/[C@H](O[C@@H]2O[C@H](C)[C@@H](O)[C@H](N)[C@@H]2O)C[C@@H]2O[C@](O)(C[C@@H](O)C[C@@H](O)[C@H](O)CC[C@@H](O)C[C@@H](O)CC(=O)O[C@H]1C)C[C@H](O)[C@H]2C(=O)O = 25 µg/mL
• Cc1cc(=O)oc2c(-c3nn(-c4ccc([N+](=O)[O-])cc4[N+](=O)[O-])cc3C=O)c(O)ccc12 = inactive
• C/C(=N/Nc1ccccc1)c1c(O)ccc2c(C)cc(=O)oc12 = 50 µg/mL

Recall and state the measured MIC for `Cc1cc(=O)oc2c(-c3nn(-c4ccc(Cl)cc4)cc3C=O)c(O)ccc12` .
15 µg/mL

Recall and state the measured MIC for `C/C(=N/Nc1ccc([N+](=O)[O-])cc1[N+](=O)[O-])c1c(O)ccc2c(C)cc(=O)oc12` .
inactive

Recall and state the measured MIC for `C/C(=N/Nc1ccccc1C)c1c(O)ccc2c(C)cc(=O)oc12` .
40 µg/mL

Recall and state the measured MIC for `C/C(=N/Nc1ccc(Cl)cc1)c1c(O)ccc2c(C)cc(=O)oc12` .
25 µg/mL

Recall and state the measured MIC for `Cc1cc(=O)oc2c(-c3nn(-c4ccccc4)cc3C=O)c(O)ccc12` .
50 µg/mL

Recall and state the measured MIC for `COc1ccccc1N/N=C(/C)c1c(O)ccc2c(C)cc(=O)oc12` .
40 µg/mL

Recall and state the measured MIC for `Cc1ccccc1-n1cc(C=O)c(-c2c(O)ccc3c(C)cc(=O)oc23)n1` .
30 µg/mL

meta.source: ChEMBL document CHEMBL2439956
